Biological target: TLR7 (Homo sapiens, UniProt Q9NYK1)
Sequence (Q9NYK1 27-1049): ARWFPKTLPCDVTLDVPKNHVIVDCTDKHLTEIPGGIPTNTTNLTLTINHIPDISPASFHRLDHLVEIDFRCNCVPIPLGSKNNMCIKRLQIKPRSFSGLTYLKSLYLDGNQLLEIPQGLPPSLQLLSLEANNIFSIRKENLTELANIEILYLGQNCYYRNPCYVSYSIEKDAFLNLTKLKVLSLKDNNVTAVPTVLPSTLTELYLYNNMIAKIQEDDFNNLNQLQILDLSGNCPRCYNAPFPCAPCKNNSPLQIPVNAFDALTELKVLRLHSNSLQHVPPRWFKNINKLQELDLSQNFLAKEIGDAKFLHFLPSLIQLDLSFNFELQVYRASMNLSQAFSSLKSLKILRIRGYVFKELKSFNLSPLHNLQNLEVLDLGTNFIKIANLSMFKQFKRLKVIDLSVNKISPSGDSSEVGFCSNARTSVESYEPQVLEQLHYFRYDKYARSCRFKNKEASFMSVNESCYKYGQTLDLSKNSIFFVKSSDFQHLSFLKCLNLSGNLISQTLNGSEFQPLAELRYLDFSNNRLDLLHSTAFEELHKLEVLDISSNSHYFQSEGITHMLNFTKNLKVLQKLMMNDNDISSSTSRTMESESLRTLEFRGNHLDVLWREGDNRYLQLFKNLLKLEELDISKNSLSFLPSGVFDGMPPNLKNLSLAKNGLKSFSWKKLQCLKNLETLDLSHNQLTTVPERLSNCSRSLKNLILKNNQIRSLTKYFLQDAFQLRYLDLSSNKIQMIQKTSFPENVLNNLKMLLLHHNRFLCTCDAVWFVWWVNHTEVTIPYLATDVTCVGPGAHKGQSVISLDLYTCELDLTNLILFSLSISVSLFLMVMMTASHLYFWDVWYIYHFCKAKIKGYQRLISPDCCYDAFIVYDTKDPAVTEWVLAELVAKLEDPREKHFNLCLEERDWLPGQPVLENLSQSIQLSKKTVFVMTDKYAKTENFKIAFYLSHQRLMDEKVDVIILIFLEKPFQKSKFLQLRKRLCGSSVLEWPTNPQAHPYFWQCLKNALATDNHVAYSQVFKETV
Test: IFN-α1-luciferase reporter assay in genetically modified Namalwa cells, TLR7
Assay type: cell-based
Design: expressed in transfected cells; host or cells: Namalwa (ATCC CRL-1432)
Conditions: 10 μM IRM, 18 hours
Reported TLR7: fold increase of the IFN-α1-induced luciferase signal compared to a DMSO control values for the following molecules.
The number alone won't do; follow it with the unit.

*Q* Recorded TLR7: fold increase of the IFN-α1-induced luciferase signal compared to a DMSO control of COCCc1nc2c(N)nc3ccccc3c2n1CCOCCN(C)C(=O)C1CCCCC1 , please.
*A* 2.86 fold increase

*Q* Please give the measured TLR7: fold increase of the IFN-α1-induced luciferase signal compared to a DMSO control for this molecule: CCCCc1nc2c(N)nc3ccccc3c2s1 [IRM27, 2-butylthiazolo[4,5-c]quinolin-4-amine]
*A* 1.32 fold increase

*Q* Sample Nc1nc2ccccc2c2c1ncn2CCCCNC(=O)c1cnc2ccccc2c1 — what was its TLR7: fold increase of the IFN-α1-induced luciferase signal compared to a DMSO control?
*A* 0.96 fold increase

*Q* So what does the record say about TLR7: fold increase of the IFN-α1-induced luciferase signal compared to a DMSO control for CCOCc1nc2c(N)nc(C)c(C)c2n1CCNS(C)(=O)=O ?
*A* 2.48 fold increase

*Q* // lookup TLR7: fold increase of the IFN-α1-induced luciferase signal compared to a DMSO control for CCCCc1nc2c(N)nc3cccnc3c2n1CCNC(=O)c1ccc(Br)o1
*A* 2.02 fold increase

*Q* Would you kindly share the measured TLR7: fold increase of the IFN-α1-induced luciferase signal compared to a DMSO control for CCCCc1nc2c(N)nc3ccccc3c2n1CCCCNS(=O)(=O)c1ccc2ccccc2c1 ?
*A* 1.28 fold increase

*Q* What does the record list as TLR7: fold increase of the IFN-α1-induced luciferase signal compared to a DMSO control for CCc1nc2c(N)nc3ccccc3c2n1CCCCNC(=O)C1CCCCC1 ?
*A* 2.89 fold increase

*Q* Report TLR7: fold increase of the IFN-α1-induced luciferase signal compared to a DMSO control for Cc1nc2c(N)nc3ccccc3c2n1CCOCC#Cc1ccccc1 please.
*A* 1.91 fold increase

Kindly review the next molecule as well.
*Q* Look up TLR7: fold increase of the IFN-α1-induced luciferase signal compared to a DMSO control for this molecule: CN(C)c1cccc(CCCOCCn2cnc3c(N)nc4ccccc4c32)c1
*A* 2.89 fold increase
